Molecular target: Mitogen-activated protein kinase; ERK1/ERK2 (Homo sapiens) (UniProt P27361+P28482)
Sequence (P27361 whole entry, looked up): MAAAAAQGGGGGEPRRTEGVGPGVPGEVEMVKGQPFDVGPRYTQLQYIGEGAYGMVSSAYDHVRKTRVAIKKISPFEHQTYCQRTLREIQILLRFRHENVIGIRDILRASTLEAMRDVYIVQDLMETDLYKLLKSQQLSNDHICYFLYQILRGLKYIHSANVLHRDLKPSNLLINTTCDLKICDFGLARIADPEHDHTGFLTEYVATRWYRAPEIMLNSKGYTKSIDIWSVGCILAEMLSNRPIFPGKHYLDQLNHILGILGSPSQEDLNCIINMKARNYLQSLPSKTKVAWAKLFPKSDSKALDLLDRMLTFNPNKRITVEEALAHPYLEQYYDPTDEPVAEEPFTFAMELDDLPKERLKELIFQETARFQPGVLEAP
Sequence (P28482 whole entry, looked up): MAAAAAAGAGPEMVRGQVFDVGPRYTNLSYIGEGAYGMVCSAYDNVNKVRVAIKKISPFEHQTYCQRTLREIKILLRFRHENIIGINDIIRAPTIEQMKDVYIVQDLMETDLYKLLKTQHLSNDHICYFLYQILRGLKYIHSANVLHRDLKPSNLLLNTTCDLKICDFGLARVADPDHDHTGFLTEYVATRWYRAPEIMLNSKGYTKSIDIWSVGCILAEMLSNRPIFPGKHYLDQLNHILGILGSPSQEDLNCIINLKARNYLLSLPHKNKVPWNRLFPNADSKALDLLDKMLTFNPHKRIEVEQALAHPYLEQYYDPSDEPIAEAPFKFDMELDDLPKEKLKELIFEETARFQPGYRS
Experiment: Activation of ERK1/2 in T20 cells at 10 uM relative to nontreated cells
Format: cell-based
Listed here are molecules together with their documented Activity.
Field: numeric (%). Do not append units.

Field: example entries. Status: answers known.
// query Activity value for entry O=C(Oc1ccc2c(c1)CN(CC1CC1)CC2)N1CCCCC1
155

// query Activity value for entry CCN(C)C(=O)Oc1ccc2c(c1)CN(CC1CC1)CC2
131

// query Activity value for entry O=C(Oc1ccc2c(c1)CN(CC1CC1)CC2)N1CCOCC1
138

Pending molecule:
// query Activity value for entry C#CCN[C@@H]1CCc2ccccc21 [RASAGILINE]
131

###

Listed here are compounds together with their documented logP.
Test: Lipophilicity, log P of the compound
Type: physicochemical
Conditions: octanol/water

Field: example entries. Status: answers known.
// query logP value for entry O=C(Oc1ccc2c(c1)CN(CC1CC1)CC2)N1CCOCC1
2.29

// query logP value for entry CCN(C)C(=O)Oc1ccc2c(c1)CN(CC1CC1)CC2
2.69

// query logP value for entry C#CCN1CCc2ccc(OC(=O)N(C)CC)cc2C1
2.25

// query logP value for entry C#CCN1CCc2ccc(OC(=O)N3CCCCC3)cc2C1
2.63

Further cases:
// query logP value for entry C#CCN1CCc2ccc(OC(=O)N3CCCC3)cc2C1
2.23

// query logP value for entry O=C(Oc1ccc2c(c1)CN(CC1CC1)CC2)N1CCCC1
2.67

// query logP value for entry C#CCN[C@@H]1CCc2ccccc21 [RASAGILINE]
2.29

// query logP value for entry C#CCN1CCc2ccc(OC(=O)N3CCOCC3)cc2C1
1.57

// query logP value for entry O=C(Oc1ccc2c(c1)CN(CC1CC1)CC2)N1CCCCC1
3.09

###

Experiment: Inhibition of monoamino oxidase B from F344/N rat brain cortex
pIC50: −log10 of the molar value.
Criterion: pIC50 meeting or surpassing 5. Met: Yes. Not met: No.

Tell me whether pIC50 is at least 5 here: C#CCN1CCc2ccc(OC(=O)N(C)CC)cc2C1
No

Tell me whether pIC50 is at least 5 here: O=C(Oc1ccc2c(c1)CN(CC1CC1)CC2)N1CCOCC1
No

Tell me whether pIC50 is at least 5 here: C#CCN[C@@H]1CCc2ccccc21
Yes

Tell me whether pIC50 is at least 5 here: O=C(Oc1ccc2c(c1)CN(CC1CC1)CC2)N1CCCC1
No

Tell me whether pIC50 is at least 5 here: C#CCN1CCc2ccc(OC(=O)N3CCOCC3)cc2C1
No

Tell me whether pIC50 is at least 5 here: C#CCN1CCc2ccc(OC(=O)N3CCCCC3)cc2C1
No

###

Experiment: Inhibition of monoamino oxidase B from F344/N rat brain cortex
observedProperty: pIC50
By convention, pIC50 is the negative base-10 log of a molar concentration.

// query pIC50 value for entry O=C(Oc1ccc2c(c1)CN(CC1CC1)CC2)N1CCCCC1
4.94

// query pIC50 value for entry C#CCN1CCc2ccc(OC(=O)N3CCCC3)cc2C1
4.86

// query pIC50 value for entry CCN(C)C(=O)Oc1ccc2c(c1)CN(CC1CC1)CC2
4.89

All values here come from ChEMBL document CHEMBL1142281.
